# Tested system: Furin (Homo sapiens)
Non-standard residues stand in square brackets, D forms with d. Residues, ends and D or L forms follow the SMILES beside them. Ac5c = NC1(C(=O)O)CCCC1
compounds and their reported Ki

Compound: C[C@@H](O)[C@H](N)C(=O)N1CCC[C@H]1C(=O)N[C@@H](CCCNC(=N)N)C(=O)NCCC(=O)N[C@@H](CCCNC(=N)N)C(=O)N[C@@H](CCCNC(=N)N)C(=O)N[C@@H](CCCNC(=N)N)C(=O)N[C@@H](CCCCN)C(=O)N[C@@H](CCCCN)C(=O)N[C@@H](CCCNC(=N)N)C(=O)NCC(N)=O
Ki: > 100 nM

Compound: C[C@@H](O)[C@H](N)C(=O)N1CCC[C@H]1C(=O)N[C@@H](CCCNC(=N)N)C(=O)NCCC(=O)N[C@@H](CCCNC(=N)N)C(=O)N[C@@H](CCCNC(=N)N)C(=O)N[C@@H](CCCNC(=N)N)C(=O)N[C@@H](CCCCN)C(=O)N[C@@H](CCCCN)C(=O)N[C@@H](CCCNC(=N)N)C(=O)NCC(=O)O
Ki: > 100 nM

Now look at this one.
q: Specify reported Ki for the compound shown: C[C@H](NC(=O)[C@H](CCCNC(=N)N)NC(=O)[C@H](CCC(N)=O)NC(=O)[C@@H]1CCCN1C(=O)[C@@H](N)[C@@H](C)O)C(=O)N[C@@H](CCCNC(=N)N)C(=O)N[C@@H](CCCNC(=N)N)C(=O)N[C@@H](CCCNC(=N)N)C(=O)N[C@@H](CCCCN)C(=O)N[C@@H](CCCCN)C(=O)N[C@@H](CCCNC(=N)N)C(=O)NC1(C(=O)O)CCCC1 (H-TPQRARRRKKR[Ac5c]-OH)
a: > 100 nM

* * *

The reader will find Ki measurements below, all made with Furin (Homo sapiens, UniProt P09958).
Sequence (P09958 whole entry): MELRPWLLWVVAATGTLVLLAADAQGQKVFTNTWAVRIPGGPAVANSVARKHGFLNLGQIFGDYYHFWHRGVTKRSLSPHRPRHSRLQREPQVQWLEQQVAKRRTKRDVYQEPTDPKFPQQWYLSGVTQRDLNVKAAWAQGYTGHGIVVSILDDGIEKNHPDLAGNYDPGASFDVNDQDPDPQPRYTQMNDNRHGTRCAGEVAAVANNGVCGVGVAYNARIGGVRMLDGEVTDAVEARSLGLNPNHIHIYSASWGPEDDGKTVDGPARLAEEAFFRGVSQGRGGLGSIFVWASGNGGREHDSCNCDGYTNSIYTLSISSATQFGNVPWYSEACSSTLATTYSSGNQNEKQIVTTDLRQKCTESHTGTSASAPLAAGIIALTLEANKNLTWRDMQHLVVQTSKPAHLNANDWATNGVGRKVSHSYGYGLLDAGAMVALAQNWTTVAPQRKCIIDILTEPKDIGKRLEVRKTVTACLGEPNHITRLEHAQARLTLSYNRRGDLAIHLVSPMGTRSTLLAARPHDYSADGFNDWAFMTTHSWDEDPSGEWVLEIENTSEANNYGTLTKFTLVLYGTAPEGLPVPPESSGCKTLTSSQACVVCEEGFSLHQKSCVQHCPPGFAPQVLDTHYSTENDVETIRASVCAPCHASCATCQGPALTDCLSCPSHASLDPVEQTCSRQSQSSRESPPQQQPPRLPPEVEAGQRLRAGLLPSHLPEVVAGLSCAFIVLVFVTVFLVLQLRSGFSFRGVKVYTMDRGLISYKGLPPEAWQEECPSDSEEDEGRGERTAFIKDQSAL

Substance: H-TPRERRAKKRG-OH
Tested system: Furin (Homo sapiens, UniProt P09958)
Assay result: > 100 nM
//
Substance: H-TPRERARKKRV-OH
Tested system: Furin (Homo sapiens, UniProt P09958)
Assay result: > 100 nM
//
Substance: H-TPRARRRKKRA-OH
Tested system: Furin (Homo sapiens, UniProt P09958)
Assay result: > 100 nM
//
Substance: H-TPRYRRRKKRG-OH
Tested system: Furin (Homo sapiens, UniProt P09958)
Assay result: > 100 nM
//
Substance: H-TPRERRRKKA-OH
Tested system: Furin (Homo sapiens, UniProt P09958)
Assay result: > 100 nM
//
Substance: H-TPRFRRRKKRG-OH
Tested system: Furin (Homo sapiens, UniProt P09958)
Assay result: > 100 nM
//
Substance: H-TPQRPRRRKKRG-OH
Tested system: Furin (Homo sapiens, UniProt P09958)
Assay result: > 100 nM
//
Substance: H-AARERRRKKR-OH
Tested system: Furin (Homo sapiens, UniProt P09958)
Assay result: > 100 nM
//
Substance: H-TPRERRRAKRG-OH
Tested system: Furin (Homo sapiens, UniProt P09958)
Assay result: > 100 nM
//
Substance: H-TPRPRRRKKRG-NH2
Tested system: Furin (Homo sapiens, UniProt P09958)
Assay result: > 100 nM

q: Tell us which Ki value is on record for H-TPRDRRRKKRG-OH
a: > 100 nM

q: Give a short answer stating reported Ki for H-TPRERRAAKRG-OH .
a: > 100 nM

q: Given the substance H-TPRARRRKKRY-NH2 , write its reported Ki.
a: 53 nM

q: Tell me its Ki given H-TPRARRRKKRQ-OH as the entry.
a: 47 nM

q: Please give the documented Ki of H-GAGAGATPRARRRKKRF-OH
a: 56 nM
